Tested on: T-cells in PBMC of patients recovered from SARS-CoV-2 infection
Format: cell-based, human
Give measured SARS cohort pos/tested for each item. Keep answers brief.

Observed SARS cohort pos/tested on T-cells in PBMC of patients recovered from SARS-CoV-2 infection, entry RWYFYYLGTGPEAGL (SARS-CoV-2) [SEQ ID NO: 2, SARS-CoV-2 nucleocapsid-derived HLA-DR peptide] , equals 16/22

Observed SARS cohort pos/tested on T-cells in PBMC of patients recovered from SARS-CoV-2 infection, entry SKWYIRVGARKSAPL [SEQ ID NO: 10] , equals 15/22

Observed SARS cohort pos/tested on T-cells in PBMC of patients recovered from SARS-CoV-2 infection, entry FYVYSRVKNLNSSRV (SARS-CoV-2) [SEQ ID NO: 9, SARS-CoV-2 envelope protein-derived HLA-DR peptide] , equals 11/22

Observed SARS cohort pos/tested on T-cells in PBMC of patients recovered from SARS-CoV-2 infection, entry ASAFFGMSRIGMEVT (SARS-CoV-2) [SEQ ID NO: 5, SARS-CoV-2 nucleocapsid-derived HLA-DR peptide] , equals 12/23

Observed SARS cohort pos/tested on T-cells in PBMC of patients recovered from SARS-CoV-2 infection, entry KDGIIWVATEGALNT (SARS-CoV-2) [SEQ ID NO: 1, SARS-CoV-2 nucleocapsid-derived HLA-DR peptide] , equals 20/22

Observed SARS cohort pos/tested on T-cells in PBMC of patients recovered from SARS-CoV-2 infection, entry LLLLDRLNQLESKMS (SARS-CoV-2) [SEQ ID NO: 4, SARS-CoV-2 nucleocapsid-derived HLA-DR peptide] , equals 14/22

Observed SARS cohort pos/tested on T-cells in PBMC of patients recovered from SARS-CoV-2 infection, entry ITRFQTLLALHRSYL [SEQ ID NO: 7] , equals 12/22

Observed SARS cohort pos/tested on T-cells in PBMC of patients recovered from SARS-CoV-2 infection, entry ASWFTALTQHGKEDL (SARS-CoV-2) [SEQ ID NO: 3, SARS-CoV-2 nucleocapsid-derived HLA-DR peptide] , equals 13/22
